TARGET_ENTITY: R232-STING (Homo sapiens (Human), UniProt Q86WV6, H232R)
Sequence (Q86WV6 155-341 H232R): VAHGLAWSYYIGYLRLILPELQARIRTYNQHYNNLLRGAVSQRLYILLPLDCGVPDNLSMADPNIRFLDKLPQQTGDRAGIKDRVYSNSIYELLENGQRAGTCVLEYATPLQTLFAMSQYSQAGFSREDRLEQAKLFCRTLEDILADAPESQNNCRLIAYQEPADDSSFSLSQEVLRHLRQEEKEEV
STUDY_CONDITIONS: read-out: R232-STING SPA-IC50 Ki; STING residues 155-341, 100 nM 3H-cGAMP; KI from IC50 with Cheng-Prusoff equation
Would you kindly list pKi for each of these compounds?
Conceptually, pKi converts a concentration in mol/L into minus its log10.

q: # lookup: pKi of Cc1cc(-c2cn(C)c(-c3nc(C(N)=O)cc4c3cnn4C)n2)n(CCCC#N)n1 [AIF15]
a: 7.33

q: # lookup: pKi of CCn1ncc2c(-c3nc(-c4cc(C)nn4CCCO)cn3C)nc(C(N)=O)cc21 [Example AIJ01]
a: 7.99

q: # lookup: pKi of Cc1cc(-c2cn(C)c(-c3nc(C(N)=O)cc4c3cnn4C)n2)n(C)n1 [AIH02]
a: 7.64

q: # lookup: pKi of Cc1cc(-c2cn(C)c(-c3nc(C(N)=O)cc4c3cnn4C)n2)n(CCCC(F)F)n1 [AIF14]
a: 7.55
